Exercise: state measured cell viability for each of the molecules provided.
# Test system: K562
# Experiment notes: cell viability relative to vehicle control; higher = less cytotoxic;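 further: after 48 h exposure read by CellTiter-Glo luminescence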
# Experimental parameters: 10 µM; SRSF2 genotype: SRSF2 wt/wt
Answers are plain numbers, in %.

Known cell viability results, listed for orientation:
{"Molecule": "COc1cc(C)c2c(=O)c(-c3ccccc3)coc2c1 [5-Methyl-7-methoxyisoflavone]", "Property label": "cell viability", "Obs value": 92.2}
{"Molecule": "C[C@H]1C[C@H]2[C@@H]3CCC4=CC(=O)C=C[C@]4(C)[C@@]3(F)[C@@H](O)C[C@]2(C)[C@@]1(O)C(=O)CO [Betamethasone (Celestone)]", "Property label": "cell viability", "Obs value": 89.5}
{"Molecule": "O=c1c(O)c(-c2ccc(O)c(O)c2)oc2cc(O)cc(O)c12 [Quercetin dihydrate (Sophoretin)]", "Property label": "cell viability", "Obs value": 92.6}

Batch of 2 molecules: report cell viability for each.
1. CC12CCC(C1)C(C)(C)C2O (stereo not given) [Fenchyl Alcohol]
2. CC(=O)O[C@H]1CC/C(C)=C/CC/C(C)=C/C[C@]2(C(C)C)CC[C@@]1(C)O2 [Incensole acetate]

[out]
1. 91.5
2. 91.2

###

Please respond with reported cell viability for every item in the list.
# Tested on: MOLM14
# Experiment notes: cell viability relative to vehicle control; higher = less cytotoxic
# Experimental parameters: 10 µM; SRSF2 genotype: SRSF2 wt/wt
Counter-ions that a name gives are not always drawn.
One number for each entry, in %.

{"Molecule": "OC(CN1CCN(c2cccc(Cl)c2)CC1)C(c1ccccc1)c1ccccc1 (configuration not stated)", "cell viability, %": 94.5}
{"Molecule": "O=C(O)CCc1c[nH]c2ccccc12 [3-Indolepropionic acid]", "cell viability, %": 96.9}
{"Molecule": "Cc1ccc(Nc2nccc(N(C)c3ccc4c(C)n(C)nc4c3)n2)cc1S(N)(=O)=O [Pazopanib HCl]", "cell viability, %": 39.8}

Provide each entry's cell viability from the list below.
1. CCC(CC)CC1(C(=O)Nc2ccccc2SC(=O)C(C)C)CCCCC1
2. C[C@H]1[C@H](C)CC[C@]2(C(=O)O[C@@H]3O[C@H](CO[C@@H]4O[C@H](CO)[C@@H](O[C@@H]5O[C@@H](C)[C@H](O)[C@@H](O)[C@H]5O)[C@H](O)[C@H]4O)[C@@H](O)[C@H](O)[C@H]3O)CC[C@]3(C)C(=CC[C@@H]4[C@@]5(C)C[C@@H](O)[C@H](O)[C@@](C)(CO)[C@@H]5[C@H](O)C[C@]43C)[C@H]12 [Madecassoside]
3. OCC1OC(Oc2ccc(O)cc2)C(O)C(O)C1O (stereo not drawn) [alpha-Arbutin]
4. CCOC(=O)c1cnc2ccc(-c3cncc(NS(=O)(=O)c4ccccc4)c3)cn12

[out]
1. 95.5
2. 106
3. 109
4. 4.38

###

# Test system: MOLM14
# Experiment notes: cell viability relative to vehicle control; higher = less cytotoxic
# Experimental parameters: 10 µM; SRSF2 genotype: SRSF2 P95H/wt
Answer each item with its documented cell viability.
Answers are plain numbers, in %.

Here is how some compounds turned out for cell viability.
{"Compound": "COc1ccc(C=O)c(O)c1 [4-Methoxysalicylaldehyde]", "cell viability [%]": 99.4}
{"Compound": "CN(C)CC(c1ccc(O)cc1)C1(O)CCCCC1 (stereo unspecified) [Desvenlafaxine]", "cell viability [%]": 98.1}
{"Compound": "CN(C)Cc1ccc(S(=O)(=O)n2ccc(/C=C/C(=O)NO)c2)cc1 [Resminostat (RAS2410)]", "cell viability [%]": 0.76}
{"Compound": "Nc1ncnc2c1ncn2[C@@H]1O[C@H](CO)[C@@H](O)[C@H]1O [Adenosine (Adenocard)]", "cell viability [%]": 104}
{"Compound": "CC[C@@]1(O)C(=O)OCc2c1cc1n(c2=O)Cc2cc3c(CN(C)C)c(O)ccc3nc2-1 [Topotecan]", "cell viability [%]": 1.67}
{"Compound": "COc1ccc(C[C@@H]2c3cc(OC)c(OC)cc3CC[N@+]2(C)CCC(=O)OCCCCCOC(=O)CC[N@@+]2(C)CCc3cc(OC)c(OC)cc3[C@H]2Cc2ccc(OC)c(OC)c2)cc1OC [Cisatracurium besylate (Nimbex)]", "cell viability [%]": 70.7}

I would be grateful if you could provide cell viability for each of the following entries.
1. CCc1cc(C(N)=S)ccn1 [Ethionamide]
2. COc1cc(C[C@@H](CO[C@@H]2O[C@H](CO)[C@@H](O)[C@H](O)[C@H]2O)[C@H](CO[C@@H]2O[C@H](CO)[C@@H](O)[C@H](O)[C@H]2O)Cc2ccc(O)c(OC)c2)ccc1O [Secoisolariciresinol diglucoside]
3. C=C1/C(=C\C=C2/CCC[C@]3(C)[C@@H]([C@H](C)CCCC(C)(C)O)CC[C@@H]23)C[C@@H](O)C[C@@H]1O [Calcitriol (Rocaltrol)]
4. CC1=C[C@H]2[C@@H](CC1)[C@H](C)CC[C@H]2[C@@H](C)C(=O)O [Dihydroartemisinic acid]
5. CC(=O)O[C@H]1C(=O)[C@@]2(C)[C@H]([C@H](OC(=O)c3ccccc3)[C@]3(O)C[C@H](OC(=O)[C@H](O)[C@@H](NC(=O)c4ccccc4)c4ccccc4)C(C)=C1C3(C)C)[C@]1(OC(C)=O)CO[C@@H]1C[C@@H]2O [7-Epitaxol]
6. O=C1CCN(c2ccccc2)N1 [Phenidone]
7. N#Cc1ccc(-c2c(-c3ncn[nH]3)sc(N3CCOCC3)c2C#N)c(F)c1
8. CCOc1cc([C@@H](CS(C)(=O)=O)N2C(=O)c3cccc(NC(C)=O)c3C2=O)ccc1OC

[out]
1. 106
2. 101
3. 65.4
4. 94.6
5. 8
6. 100
7. 27.8
8. 98

Provide cell viability for all items below, preserving their order.
1. NNC(=O)c1ccncc1.Nc1ccc(C(=O)O)c(O)c1 [pasiniazid]
2. Nc1cccc2c1C(=O)N(C1CCC(=O)NC1=O)C2=O (stereo unspecified) [Pomalidomide]

[out]
1. 101
2. 88.5
